test-system: HLA-A*69:01
test-summary: IEDB peptide-MHC binding, purified MHC/competitive/fluorescence; filed as Kd, often an IC50 or EC50 that approximates it; bounds were set here for any values at or beyond the usual limits of such assays
experimental-setup: source organism: Hantavirus HPR/02-73
assay-endpoint: Kd

Req: I'd like to know its Kd. The sequence in question is WKAIGAYIL
Resp: ≥ 20 µM

---

test-system: HLA-B*53:01
test-summary: IEDB peptide-MHC binding, purified MHC/competitive/radioactivity; filed as Kd, often an IC50 or EC50 that approximates it; bounds were set here for any values at or beyond the usual limits of such assays
experimental-setup: source organism: Dengue virus 3 Sri Lanka/1266/2000
assay-endpoint: Kd (nM)
Only the number, expressed in nM, is required.

Req: I'd like to know its Kd. The sequence in question is MEITAEWLW
Resp: 32.1

---

test-system: HLA-B*08:01
test-summary: IEDB peptide-MHC binding, purified MHC/direct/fluorescence; filed as Kd, often an IC50 or EC50 that approximates it; bounds were set here for any values at or beyond the usual limits of such assays
experimental-setup: source organism: Yersinia enterocolitica subsp. enterocolitica 8081
assay-endpoint: Kd

Req: Find Kd (HLA-B*08:01) for the entry SDDQLRLLK
Resp: ≥ 20 µM

---

test-system: HLA-A*03:01
test-summary: IEDB peptide-MHC binding, purified MHC/competitive/fluorescence; filed as Kd, often an IC50 or EC50 that approximates it; bounds were set here for any values at or beyond the usual limits of such assays
experimental-setup: source organism: Listeria monocytogenes HCC23
assay-endpoint: pKd
Please express pKd as -log10 of the molar concentration.

Req: I'd like to know its pKd. The sequence in question is FMLSVHYRK
Resp: 6.44

---

test-system: HLA-B*46:01
test-summary: IEDB peptide-MHC binding, purified MHC/direct/fluorescence; filed as Kd, often an IC50 or EC50 that approximates it; bounds were set here for any values at or beyond the usual limits of such assays
experimental-setup: source organism: Vibrio vulnificus
pKd: −log10 of the molar value.
assay-endpoint: pKd

Req: I'd like to know its pKd. The sequence in question is LLTQSNAGF
Resp: ≤ 4.70

---

test-system: HLA-B*45:01
test-summary: IEDB peptide-MHC binding, purified MHC/competitive/radioactivity; filed as Kd, often an IC50 or EC50 that approximates it; bounds were set here for any values at or beyond the usual limits of such assays
experimental-setup: source organism: Mammarenavirus brazilense
assay-endpoint: pKd
Please express pKd as -log10 of the molar concentration.

Req: Find pKd (HLA-B*45:01) for the entry AENDIVEAL
Resp: 5.99

---

test-system: HLA-B*07:02
test-summary: IEDB peptide-MHC binding, purified MHC/direct/fluorescence; filed as Kd, often an IC50 or EC50 that approximates it; bounds were set here for any values at or beyond the usual limits of such assays
experimental-setup: source organism: Listeria monocytogenes
assay-endpoint: Kd

Req: I'd like to know its Kd. The sequence in question is MAMLADYFY
Resp: ≥ 20 µM

---

test-system: HLA-B*15:01
test-summary: IEDB peptide-MHC binding, purified MHC/direct/fluorescence; filed as Kd, often an IC50 or EC50 that approximates it; bounds were set here for any values at or beyond the usual limits of such assays
experimental-setup: source organism: Brucella melitensis bv. 1 str. 16M
pKd: −log10 of the molar value.
assay-endpoint: pKd

Req: I'd like to know its pKd. The sequence in question is TTRAVNMEV
Resp: ≤ 4.70
